- subject.of.test: 11β-HSD1 (Homo sapiens, UniProt P28845)
- Construct: endogenous in cells
- Sequence (P28845 whole entry): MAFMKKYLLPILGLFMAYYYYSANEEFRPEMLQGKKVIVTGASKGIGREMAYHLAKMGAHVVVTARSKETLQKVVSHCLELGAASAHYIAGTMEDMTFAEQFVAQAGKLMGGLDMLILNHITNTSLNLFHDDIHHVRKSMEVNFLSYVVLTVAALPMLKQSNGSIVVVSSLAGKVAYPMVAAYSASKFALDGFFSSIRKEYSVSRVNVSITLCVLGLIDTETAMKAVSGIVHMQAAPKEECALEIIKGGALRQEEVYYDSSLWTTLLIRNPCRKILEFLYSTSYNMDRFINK
- assay.procedure: Human aortic smooth muscle cell assay (cortisone to cortisol conversion)
- condition.notes: primary human aortic smooth muscle cells (AoSMC), hTNFα-induced 11β-HSD1, cortisol measured by immunoassay
Label Y when IC50 is strictly below 200 nM; at or above that, label N.

* COC(=O)N1CCC(N2CC[C@@H](Cc3c(Cl)cc(-c4ccc(C(=O)N5CCC(C(F)(F)F)CC5)cc4)cc3Cl)C2=O)CC1 [Example 4] | N
* O=C(Nc1ccccc1)N1CCC(N2CC[C@@H](Cc3c(Cl)cc(-c4ccc(F)cc4)cc3Cl)C2=O)CC1 [Example 8] | Y
* CS(=O)(=O)N1CCC(N2CC[C@@H](Cc3c(Cl)cc(-c4ccc(F)cc4)cc3Cl)C2=O)CC1 [Example 1] | Y
* CNC(=O)N1CCC(N2CC[C@@H](Cc3c(Cl)cc(-c4ccc(F)cc4)cc3Cl)C2=O)CC1 [Example 6] | Y
* COC(=O)N1CCC(N2CC[C@@H](Cc3c(Cl)cc(-c4ccc(F)cc4)cc3Cl)C2=O)CC1 [Example 3] | Y

Just for reference, patent US7829582B2 is where these values come from.
